Measured values drawn from ChEMBL document CHEMBL3751830 for this set.

# test.system: CYP3A4 (Homo sapiens, UniProt P08684)
# Sequence (P08684 whole entry): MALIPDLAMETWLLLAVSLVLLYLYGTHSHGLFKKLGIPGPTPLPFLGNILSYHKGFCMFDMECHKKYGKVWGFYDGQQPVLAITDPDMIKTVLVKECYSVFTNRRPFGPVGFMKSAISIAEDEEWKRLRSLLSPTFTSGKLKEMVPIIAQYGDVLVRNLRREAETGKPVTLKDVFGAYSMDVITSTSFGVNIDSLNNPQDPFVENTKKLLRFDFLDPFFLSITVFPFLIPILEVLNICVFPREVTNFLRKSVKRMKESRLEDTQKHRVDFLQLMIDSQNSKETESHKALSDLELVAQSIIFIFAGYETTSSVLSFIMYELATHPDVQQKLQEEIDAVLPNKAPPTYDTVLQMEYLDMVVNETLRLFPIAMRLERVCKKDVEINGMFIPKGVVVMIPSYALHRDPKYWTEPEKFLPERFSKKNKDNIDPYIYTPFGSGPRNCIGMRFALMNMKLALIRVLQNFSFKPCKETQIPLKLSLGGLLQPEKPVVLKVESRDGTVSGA
# experiment.description: in vitro
# condition: liver microsomes
# Description: Inhibition of CYP3A4 in human liver microsomes at 10 uM after 20 mins
Below, each of the molecules is paired with its reported inhibition at 20 min, 10 µM value.

mol	measurement.unit	inhibition at 20 min, 10 µM
O=C(O)CCNc1nc(N2CCc3ccccc3CC2)cc(-n2ccnn2)n1	%	7
O=C(O)CCNc1nc(N2CCc3ccccc3CC2)cc(-n2cc3ccccc3n2)n1	%	4
O=C(O)CCNc1nc(-c2nccs2)cc(N2CCc3ccccc3CC2)n1	%	12
O=C(O)CCNc1nc(N2CCc3ccccc3CC2)cc(-n2nccn2)n1	%	7
O=C(O)CCNc1nc(N2CCc3ccccc3CC2)cc(-n2cccn2)n1	%	3
